# Tested on: A375 cells
# METHOD_DESCRIPTION: Assay 1: A375 cells treated with S1152, S1008 and compound, immunofluorescence (sc-365823) signal
# Format: cell-based
# MEASUREMENT_CONTEXT: 1 μM S1152 + 0.5 μM S1008, one day
pEC50: −log10 of the molar value.
READOUT_LABEL: pEC50

molecule="COc1cc(F)cc(Nc2cc(-c3cnccn3)nc([C@@H]3CC[C@H](C)N(C(C)=O)C3)n2)c1 [Compound 00067]" subject_of_test="A375 cells" readout_label=pEC50 result="> 6.70"
molecule="CC(=O)N1C[C@H](c2nc(Nc3ccc4nc(C)oc4c3)cc(-c3cccnc3)n2)CC[C@@H]1C [Compound 00037]" subject_of_test="A375 cells" readout_label=pEC50 result="6.00 to 6.70"
molecule="CC(=O)N1C[C@H](c2nc(Nc3cccc(F)c3)cc(-c3cccnc3)n2)CC[C@@H]1C(F)(F)F (racemic) [Compound 00023]" subject_of_test="A375 cells" readout_label=pEC50 result="6.00 to 6.70"
molecule="CC(=O)N1C[C@H](c2nc(Nc3ccnc(C(C)(F)F)c3)cc(-c3cccnc3)n2)CC[C@@H]1C [Compound 00146]" subject_of_test="A375 cells" readout_label=pEC50 result="> 6.70"
molecule="CC(=O)N1C[C@H](c2nc(Nc3cc(C)nc(C)c3)cc(-c3cccnc3)n2)CC[C@@H]1C [Compound 00138]" subject_of_test="A375 cells" readout_label=pEC50 result="> 6.70"
molecule="CC(=O)N1C[C@H](c2nc(Nc3ccnc(OC(C)C)c3)cc(-c3cnccn3)n2)CC[C@@H]1C [Compound 00155]" subject_of_test="A375 cells" readout_label=pEC50 result="6.00 to 6.70"

Lab note: next molecule to report on.
The measured pEC50 associated with COc1cncc(-c2cc(Nc3cncc(C)c3)nc([C@@H]3CC[C@H](C)N(C(C)=O)C3)n2)c1 [Compound 00132] reads > 6.70

----------
# SUBJECT_OF_TEST: TRIM24(Bromo.) (Homo sapiens)
# Construct: T7 phage strains displaying bromodomains were grown in parallel
# Sequence (O15164 899-1004 limits assumed): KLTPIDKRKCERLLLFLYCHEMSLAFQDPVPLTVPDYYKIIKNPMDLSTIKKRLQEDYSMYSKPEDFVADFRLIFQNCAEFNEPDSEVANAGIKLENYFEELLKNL
# METHOD_DESCRIPTION: BromoKdMAX (BROMOscan, DiscoverX)
READOUT_LABEL: Kd

// returns Kd for COc1cncc(-c2cc(Nc3cccc(F)c3)nc([C@@H]3CC[C@H](C)N(C(C)=O)C3)n2)c1 [Compound 00004] with TRIM24(Bromo.) (Homo sapiens); value = > 10 µM

----------
# System: A375 cells
# METHOD_DESCRIPTION: Assay 1: A375 cells treated with S1152, S1008 and compound, immunofluorescence (sc-365823) signal
# Type: cell-based
# MEASUREMENT_CONTEXT: 1 μM S1152 + 0.5 μM S1008, one day
pEC50: −log10 of the molar value.
READOUT_LABEL: pEC50

Solved entries:
compound_string=CC(=O)Nc1cc(Nc2cc(-c3cccnc3)nc([C@@H]3CC[C@H](C)N(C(C)=O)C3)n2)ccn1 result="5.00 to 6.00"
compound_string=CC(=O)N1C[C@H](c2nc(Nc3cccc(N4CCCC4=O)c3)cc(-c3cccnc3)n2)CC[C@@H]1C result="> 6.70"

The measured pEC50 associated with CC(=O)N1C[C@H](c2nc(Nc3cc(C)nc(-c4cnn(C)c4)c3)cc(-c3cccnc3)n2)CC[C@@H]1C reads > 6.70

The measured pEC50 associated with CC(=O)N1C[C@H](c2nc(Nc3ccnc(C)c3)cc(-c3cncc(OC(F)F)c3)n2)CC[C@@H]1C reads > 6.70

The measured pEC50 associated with CC(=O)N1C[C@H](c2nc(Nc3ccnc(F)c3)cc(-c3cccnc3)n2)CC[C@@H]1C reads > 6.70

The measured pEC50 associated with COc1cc(F)cc(Nc2cc(-c3cccnc3)nc([C@@H]3CC[C@H](C)N(C(C)=O)C3)n2)c1 reads > 6.70

The measured pEC50 associated with CC(=O)N1C[C@H](c2nc(Nc3cccc(-c4nnn(C)n4)c3)cc(-c3cccnc3)n2)CC[C@@H]1C reads > 6.70

The measured pEC50 associated with CC(=O)N1C[C@H](c2nc(Nc3cc(F)cc(C(=O)N(C)C)c3)cc(-c3cccnc3)n2)CC[C@@H]1C reads 6.00 to 6.70

The measured pEC50 associated with CC(=O)Nc1cccc(Nc2cc(-c3cccnc3)nc([C@@H]3CC[C@H](C)N(C(C)=O)C3)n2)n1 reads > 6.70

The measured pEC50 associated with CC(=O)N1C[C@H](c2nc(Nc3ccc4c(c3)B(O)OC4)cc(-c3cccnc3)n2)CC[C@@H]1C reads 6.00 to 6.70
